A collection of molecules and their measured pKi
Molecular target: hsst3 (Homo sapiens, UniProt P32745)
Construct: expressed in transfected cells
Sequence (P32745 whole entry): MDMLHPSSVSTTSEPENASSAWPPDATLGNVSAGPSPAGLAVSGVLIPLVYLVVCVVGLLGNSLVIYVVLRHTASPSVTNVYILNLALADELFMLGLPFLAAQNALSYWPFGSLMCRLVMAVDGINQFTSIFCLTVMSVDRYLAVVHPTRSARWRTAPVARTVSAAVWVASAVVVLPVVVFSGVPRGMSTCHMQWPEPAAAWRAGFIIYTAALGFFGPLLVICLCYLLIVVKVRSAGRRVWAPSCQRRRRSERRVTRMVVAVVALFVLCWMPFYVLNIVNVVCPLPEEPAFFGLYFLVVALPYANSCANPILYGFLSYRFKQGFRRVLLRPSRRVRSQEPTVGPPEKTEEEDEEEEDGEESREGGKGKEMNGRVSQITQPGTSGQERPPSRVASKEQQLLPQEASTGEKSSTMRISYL
Assay: Somatostatin receptor radioligand binding assay, hsst3
Conditions: CHO-K1 membranes, [125I-Tyr11]SS-14; read-out: hsst3 Ki
Numbered stars: 1 amine (or outer) side, 2 acyl side, 3 side chain; on linkers, the order of the positions; unused ones are H or OH. Bridge positions count the residues as written; N and C are the ends. Square brackets hold non-standard residues; d marks the D form. Peptide text beside a SMILES is read from it. * marks the point of attachment. X3 = CCCN1C[C@H](CSCC(=O)Oc2ccc(C[C@H](N[*:1])C(=O)[*:2])cc2I)C[C@@H]2c3cccc4[nH]cc(c34)C[C@H]21; X1 = CCCN1C[C@H](CSCC(=O)*)C[C@@H]2c3cccc4[nH]cc(c34)C[C@H]21; AEEA = NCCOCCOCC(=O)O
pKi here is simply -log10 of the concentration when that concentration is written in mol/L.

# annotated cases, reported pKi shown
[[record]]
molecule = "CCCN1C[C@H](CSCC(=O)NCCCC[C@@H](NC(C)=O)C(=O)N[C@H](Cc2ccccc2)C(=O)N[C@H]2CSSC[C@@H](C(=O)N[C@H](C(N)=O)[C@@H](C)O)NC(=O)[C@H]([C@@H](C)O)NC(=O)[C@H](CCCCN)NC(=O)[C@@H](Cc3c[nH]c4ccccc34)NC(=O)[C@H](Cc3ccc(O)c(I)c3)NC2=O)C[C@@H]2c3cccc4[nH]cc(c34)C[C@H]21"
experimental_result = 7.15

[[record]]
molecule = "CCCN1C[C@H](CSCC(=O)N[C@H](Cc2ccccc2)C(=O)NCCOCCOCC(=O)N[C@H](Cc2ccccc2)C(=O)N[C@H]2CSSC[C@@H](C(=O)N[C@H](C(N)=O)[C@@H](C)O)NC(=O)[C@H](C(C)C)NC(=O)[C@H](CCCCN)NC(=O)[C@@H](Cc3c[nH]c4ccccc34)NC(=O)[C@H](Cc3ccc(OC(=O)CSC[C@@H]4C[C@@H]5c6cccc7[nH]cc(c67)C[C@H]5N(CCC)C4)c(I)c3)NC2=O)C[C@@H]2c3cccc4[nH]cc(c34)C[C@H]21 [Example 5] (X1-[dF][AEEA][dF]C[X3][dW]KVCT-NH2; disulfide 4-9)"
experimental_result = 5.98


Query: Give the measured pKi of CCNC(=O)N(CCCN(C)CC(=O)N[C@H](Cc1ccccc1)C(=O)N[C@H]1CSSC[C@@H](C(=O)N[C@H](C(N)=O)[C@@H](C)O)NC(=O)[C@H](CC)NC(=O)[C@H](CCCCN)NC(=O)[C@@H](Cc2c[nH]c3ccccc23)NC(=O)[C@H](Cc2ccc(O)cc2)NC1=O)C(=O)[C@H]1CN[C@@H]2Cc3c[nH]c4cccc(c34)[C@H]2C1 .
Reply: 6.57
